The reported measurements were obtained from ChEMBL document CHEMBL3286180.

Target: Cytochrome P450 1A2 (Homo sapiens, UniProt P05177)
Sequence (P05177 whole entry): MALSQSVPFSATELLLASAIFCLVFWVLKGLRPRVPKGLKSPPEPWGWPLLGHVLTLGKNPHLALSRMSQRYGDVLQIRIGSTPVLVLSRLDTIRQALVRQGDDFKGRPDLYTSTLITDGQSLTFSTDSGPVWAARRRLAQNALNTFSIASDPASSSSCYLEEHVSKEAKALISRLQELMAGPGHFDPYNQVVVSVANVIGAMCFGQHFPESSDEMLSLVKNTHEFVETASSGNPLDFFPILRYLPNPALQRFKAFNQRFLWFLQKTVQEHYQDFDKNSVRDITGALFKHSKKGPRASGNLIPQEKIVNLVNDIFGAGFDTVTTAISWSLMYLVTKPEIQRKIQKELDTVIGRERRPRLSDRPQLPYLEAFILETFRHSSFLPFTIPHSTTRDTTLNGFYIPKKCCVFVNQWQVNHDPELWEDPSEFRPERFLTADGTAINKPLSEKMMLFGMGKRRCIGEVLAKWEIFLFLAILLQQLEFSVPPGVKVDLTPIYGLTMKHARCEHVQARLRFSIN
Assay: Inhibition of CYP1A2 (unknown origin)
Format: ADME
Property label: IC50

// compound Cc1cc(C(=O)N[C@H]2CC[C@@H](NC(=O)c3cc(F)cnc3Oc3cccc(-c4ccc(CCN5CCC(N6CCCC6)CC5)cc4)c3)CC2)nn1C , assay Cytochrome P450 1A2 (Homo sapiens, UniProt P05177), IC50 value: > 1000 nM
